Readings of IC50 for the listed compounds
Test system: GM3 expression on the cell surface, B16 mouse melanoma cells
Assay: cell based phenotypic assay, cell surface GM3 by antibody mediated immunofluorescence, B16 (GM3 B16 IC50)
Details: Mus musculus, B16 mouse melanoma cells; 50% inhibition of GM3 expression on the cell surface; read-out: GM3 B16 IC50
API: value field is a number in nM; no unit string.

Recorded IC50, per entry:
CC1(NC(=O)C2(F)CCN(c3ncc(C#N)c(Oc4ccc(F)cc4)n3)CC2)CN2CCC1CC2 (stereo not shown) ... 112
COCc1ccc(-c2ccnc(N3CCC(F)(C(=O)NC4(C)CCN5CCC4CC5)CC3)n2)cc1 (stereo not shown) ... 48.9
CCC1(NC(=O)NC(C)(C)c2ccc(-c3ccc(S(=O)(=O)CC4(COC)CC4)cc3)cc2)CN2CCC1CC2 (stereo not shown) ... 84.5
CC1(NC(=O)C2CCN(c3cncc(-c4ccc(F)cc4)n3)CC2)CCN2CCC1CC2 (stereo not shown) ... 76.6
COCC(C)(C)c1ccc(C#CC(C)(C)NC(=O)NC2(C)CN3CCC2CC3)cc1 (stereo not shown) ... 720

# input IC50 for CN(C)C(=O)c1ccc(-c2ccc(C(C)(C)NC(=O)NC3(C)CCN4CCC3CC4)cc2)cc1 (stereo not shown) ?
# output 354

# input I'd like to know its IC50. The compound in question is CC1(NC(=O)C2(F)CCN(c3ncc(OCc4ccc(F)cc4)cn3)CC2)CCN2CCC1CC2 (stereo not shown)
# output 115

* * *

Target: glucosylceramide synthase (Homo sapiens, UniProt Q16739)
Construct: Microsomes were isolated from A375 human melanoma cells; endogenous in cells
Sequence (Q16739 whole entry): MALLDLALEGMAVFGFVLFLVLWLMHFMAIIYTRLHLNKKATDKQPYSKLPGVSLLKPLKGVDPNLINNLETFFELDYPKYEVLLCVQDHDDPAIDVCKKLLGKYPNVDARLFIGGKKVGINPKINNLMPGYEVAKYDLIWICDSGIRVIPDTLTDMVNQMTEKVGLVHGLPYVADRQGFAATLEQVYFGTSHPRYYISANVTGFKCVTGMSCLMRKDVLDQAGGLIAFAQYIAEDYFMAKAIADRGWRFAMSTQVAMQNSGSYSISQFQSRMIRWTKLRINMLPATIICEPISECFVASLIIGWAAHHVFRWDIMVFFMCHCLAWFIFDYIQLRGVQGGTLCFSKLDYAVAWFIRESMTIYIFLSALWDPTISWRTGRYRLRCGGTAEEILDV
Assay: microsomal assay measuring conversion of ceramide to glucosylceramide by HPLC (GCS IC50)
Conditions: concentration causing 50% inhibition of glucosylceramide synthase activity
Assay readout: IC50 (µM)
Supply the numeric figure in µM, leaving out any unit text.

CN(C)C(=O)c1ccc(Oc2ccc(C(C)(C)NC(=O)NC3(C)CN4CCC3CC4)cc2)cc1 (stereo not shown) ... 0.201

# input Value lookup for IC50; key = CC(C)(NC(=O)N1CCN2CCC1CC2)c1ccc(-c2ccc(OCCC3COC3)cc2)cc1
# output 0.538

# input What value of measured IC50 is listed for CC(C)(NC(=O)NC1(C)CCN2CCC1CC2)c1ccc(Oc2ccc(C(=O)N3CCCCC3)cc2)cc1 (stereo not shown) ?
# output 0.00685

# input Query: IC50; subject: COCCCOc1ccc(-c2cccc(C(C)(C)NC(=O)OC3CN4CCC3CC4)c2)nn1 (stereo not shown)
# output 1.66

# input # IC50 lookup, item CC(C)(NC(=O)N1CCN2CCC1CC2)c1ccc(-c2ccc(C(=O)N3CCOCC3)cc2)cc1
# output 23

# input So what's the measured IC50 for this one? COCCCOc1cnc(-c2ccc(C(C)(C)NC(=O)OC3CN4CCC3CC4)cc2)cn1 (stereo not shown)
# output 0.131

# input Entry CC1(NC(=O)C2(F)CCN(c3ncc(Oc4ccc(F)cc4)cn3)CC2)CN2CCC1CC2 (stereo not shown) has what IC50?
# output 0.00427

* * *

Target: glucosylceramide synthase (Homo sapiens, UniProt Q16739)
Construct: Microsomes were isolated from A375 human melanoma cells; endogenous in cells
Assay: microsomal assay measuring conversion of ceramide to glucosylceramide by HPLC (GCS IC50)
Details: concentration causing 50% inhibition of glucosylceramide synthase activity
Protocol: Inhibition of glucosylceramide synthase activity for certain compounds of the invention were measured with 1) a microsomal assay that directly measures the conversion of ceramide to glucosylceramide by HPLC and 2) second, cell based, phenotypic assay that monitors cell surface expression of the downstream lipid GM3 by antibody mediated immunofluorescence. The cell based assay was performed in two different cell types, B16 and C32. Cell viability was also assessed in the second, cell-based assay. […]
Entries and their IC50

# input Find the recorded IC50 belonging to COCc1ccc(-c2nc(N3CCC(C(=O)NC4(C)CCN5CCC4CC5)CC3)ncc2F)cc1 (stereo not drawn) and report it.
# output 1.68 nM

# input Looking for the measured IC50 of CCC1(NC(=O)NC(C)(C)c2ccc(-c3ccc(C(=O)N4CCC(F)(F)CC4)cc3)cc2)CN2CCC1CC2 (stereo not drawn) , can you help?
# output 16.4 nM

# input Query: IC50; subject: CCC1(NC(=O)NC(C)(C)c2ccc(-c3ccc(S(C)(=O)=O)cc3)cc2)CN2CCC1CC2 (stereo not drawn)
# output 53.8 nM

# input Given the molecule CCC1(NC(=O)NC(C)(C)c2ccc(-c3ccc(S(=O)(=O)CC4(COC)CC4)cc3)cc2)CN2CCC1CC2 (stereo not drawn) , what is its reported IC50?
# output 20.1 nM

# input Which IC50 is listed for CCCC1(NC(=O)NC2(c3ccc(-c4ccc(COCc5cccnc5)cc4)cc3)CC2)CN2CCC1CC2 (stereo not drawn) ?
# output 11 nM

# input Fill in the blank: the reported IC50 of CNC(=O)c1ccc(Oc2ccc(C(C)(C)NC(=O)NC3(C)CCN4CCC3CC4)cc2)cc1 (stereo not drawn) is ____.
# output 12.4 nM

# input Sample CC1CN(C(=O)OC2CCN3CCC2CC3)CCN1c1nccc(-c2ccccc2)n1 (stereo not drawn) — what was its IC50?
# output 57 nM

# input Recorded IC50 of COCCOc1cccc(-c2ccc(C(C)(C)NC(=O)OC3CN4CCC3CC4)cc2)c1 (stereo not drawn) , please.
# output 10.4 nM

# input Reported IC50 for CC1CN(c2cccc(-c3ccccc3)c2)CCN1C(=O)NC1(C)CCN2CCC1CC2 (stereo not drawn) : what is it?
# output 376 nM

# input Fill in: IC50 of CCC1(NC(=O)NC(C)(C)c2ccc(-c3ccc(C(=O)N4CCCCC4)cc3)cc2)CN2CCC1CC2 (stereo not drawn) is ___
# output 13.7 nM

# input Can you look up the measured IC50 of CC1CN(C(=O)NC2(C)CCN3CCC2CC3)CCN1c1nccc(-c2ccc(F)cc2)n1 (stereo not drawn) for me?
# output 8.01 nM

# input Please give the measured IC50 for this molecule: COCCOc1ccc(-c2ccnc(N3CCC(F)(C(=O)N[C@]4(C)CN5CCC4CC5)CC3)n2)cc1
# output 3.46 nM

* * *

Tested on: GM3 expression on the cell surface, B16 mouse melanoma cells
Assay: cell based phenotypic assay, cell surface GM3 by antibody mediated immunofluorescence, B16 (GM3 B16 IC50)
Settings: Mus musculus, B16 mouse melanoma cells; 50% inhibition of GM3 expression on the cell surface; read-out: GM3 B16 IC50
Categories are assigned from the measured IC50 using these intervals: low interval: < 0.06 µM; middle interval: ≥ 0.06 µM and < 0.2 µM; high interval: ≥ 0.2 µM

# input # bin label for COCc1ccc(-c2ccnc(N3CCC(F)(C(=O)NC4(C)CN5CCC4CC5)CC3)n2)cc1 (stereo not shown)
# output middle interval

# input Which class does CC1(NC(=O)C2CCN(c3cc(-c4ccc(F)cc4)ccn3)CC2)CCN2CCC1CC2 (stereo not shown) fall in?
# output low interval

* * *

Below, each entry is listed with its recorded pIC50.
Tested on: GM3 expression on the cell surface, B16 mouse melanoma cells
Experiment: cell based phenotypic assay, cell surface GM3 by antibody mediated immunofluorescence, B16 (GM3 B16 IC50)
Conditions: Mus musculus, B16 mouse melanoma cells; 50% inhibition of GM3 expression on the cell surface; read-out: GM3 B16 IC50
In plain terms, pIC50 is the concentration in mol/L turned into minus its base-10 logarithm.

# count of solved cases: 2
CC1(NC(=O)C2CCN(c3cccc(-c4ccccc4)c3)CC2)CN2CCC1CC2 (stereo not drawn) ... 6.83
CCCC1(NC(=O)NC(C)(C)C#Cc2ccc(COC)cc2)CN2CCC1CC2 (stereo not drawn) ... 6.94

Now turn to the next compound.
# input Entry COCCCOc1ccc(-c2nc(C(C)(C)NC(=O)OC3CCN4CCC3CC4)cs2)cc1 (stereo not drawn) : reported pIC50 = ?
# output 7.04

* * *

Tested on: C32 human melanoma cells
Assay: cell viability in the C32 cell-based assay (Viability, C32 IC50)
Settings: read-out: Viability, C32 IC50; C32 cells; concentration causing 50% cell death; values greater than 10 represent a lack of cell death
pIC50: −log10 of the molar value.
Assay readout: pIC50

Here are 2 compounds together with their reported answers.
O=C(OC1CN2CCC1CC2)N1CCN(c2ccccc2)CC1 (stereo not drawn) ... ≤ 5.00
COCCCOc1ccc(C#CC(C)(C)NC(=O)OC2CN3CCC2CC3)cc1 (stereo not drawn) ... ≤ 5.00

Moving on to another compound below.
# input Field: pIC50 (C32 human melanoma cells). Entry: CN(C)C(=O)c1ccc(Oc2ccc(C(C)(C)NC(=O)OC3CN4CCC3CC4)cc2)cc1 (stereo not drawn) [Example 283]
# output ≤ 5.00

* * *

Target: glucosylceramide synthase (Homo sapiens, UniProt Q16739)
Construct: Microsomes were isolated from A375 human melanoma cells; endogenous in cells
Assay: microsomal assay measuring conversion of ceramide to glucosylceramide by HPLC (GCS IC50)
Conditions: concentration causing 50% inhibition of glucosylceramide synthase activity
Measured pIC50, listed per entry.
# reply with the number alone; pIC50 is -log10 of concentration in mol/L

Worked examples, 3 compounds total:
COCCOCc1ccc(-c2ccnc(N3CCC(C)(C(=O)NC4(C)CCN5CCC4CC5)CC3)n2)cc1 (stereo not shown) [Example 97] ... 7.87
CC1(NC(=O)C2CN(c3nccc(-c4ccc(F)cc4)n3)C2)CCN2CCC1CC2 (stereo not shown) [Example 113] ... 8.08
CC1(NC(=O)C2CCN(c3cccc(-c4ccccc4)c3)CC2)CCN2CCC1CC2 (stereo not shown) [Example 36] ... 7.99

Shift focus to the following entry.
# input State the recorded pIC50 for this entry: COCCOCc1ccc(-c2nc(N3CCC(C(=O)NC4(C)CN5CCC4CC5)CC3)ncc2F)cc1 (stereo not shown) [Example 59]
# output 8.04

Reference source: patent US12060349B2
